# System: FAB9
# assay_text: qHTS profiling for inhibitors of Plasmodium falciparum proliferation (AID 504749); note: nearly all actives have a fitted effect of over 60% in size; note: potency is the fitted concentration of half-maximal effect
# experimental_context: P. falciparum in erythrocytes, SYBR Green DNA, 72 h; series mostly up to 28.7 µM
Inconclusive results are not listed. Active and inactive are the calls of the source. Calls come from the whole dose curve; as a rule, active = well fitted inhibition curve with a large enough effect; inconclusive = small, poorly fitted or top-dose-only effect; inactive = flat fitted curve, though single readings scatter.

compound	Potency
CC(=O)NC[C@@H]1CN(c2ccc(N3CCOCC3)c(F)c2)C(=O)O1	inactive
CC[C@]1([C@H]2O[C@@H]([C@@H]3O[C@](O)(CO)[C@@H](C)C[C@H]3C)C[C@H]2C)CC[C@@H]([C@]2(C)CC[C@@]3(C[C@@H](O)[C@@H](C)[C@@H]([C@H](C)[C@H](OC)[C@H](C)C(=O)O)O3)O2)O1	70.8 nM (active)
CC(O)C(N)C(=O)O (centres undefined)	inactive
O=[N+]([O-])O[C@H]1CO[C@H]2[C@@H]1OC[C@H]2O	inactive

====

# study_system: Cytochrome P450 2C19 (Homo sapiens) (UniProt P33261)
# Sequence (P33261 whole entry, looked up): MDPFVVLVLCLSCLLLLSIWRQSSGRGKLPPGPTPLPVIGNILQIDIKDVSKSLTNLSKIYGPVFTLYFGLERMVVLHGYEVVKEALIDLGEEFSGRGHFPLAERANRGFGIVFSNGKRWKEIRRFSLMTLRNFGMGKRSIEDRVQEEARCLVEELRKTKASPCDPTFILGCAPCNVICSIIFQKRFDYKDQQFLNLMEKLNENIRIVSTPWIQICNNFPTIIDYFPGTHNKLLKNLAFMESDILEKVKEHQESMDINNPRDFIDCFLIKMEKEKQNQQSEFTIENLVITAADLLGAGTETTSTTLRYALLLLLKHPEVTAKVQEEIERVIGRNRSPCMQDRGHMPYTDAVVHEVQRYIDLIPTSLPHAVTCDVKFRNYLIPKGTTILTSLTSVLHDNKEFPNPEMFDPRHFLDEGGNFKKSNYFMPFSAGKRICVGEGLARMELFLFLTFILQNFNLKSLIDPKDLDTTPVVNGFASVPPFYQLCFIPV
# assay_text: qHTS Assay for Inhibitors and Substrates of Cytochrome P450 2C19 (AID 899); note: nearly all actives have a fitted effect of over 60% in size
# experimental_context: recombinant CYP2C19, luciferin-H EGE luminescence; series mostly up to 57.1 µM
Records with an inconclusive call do not appear. The source made the active and inactive calls. The call rests on the fitted dose curve; in most records, active means well fitted inhibition curve with a large enough effect; inconclusive means small, poorly fitted or top-dose-only effect; inactive means no such curve, though single readings can be large or run the other way.
Select the matching outcome among active, inactive

compound	class
CC(=O)OC[C@@H]1O[C@@H](Oc2cc(OC(C)=O)c3c(=O)cc(-c4ccc(OC(C)=O)c(OC(C)=O)c4)oc3c2)[C@H](OC(C)=O)[C@H](OC(C)=O)[C@@H]1OC(C)=O	inactive
O=c1cc(-c2ccccc2)oc2cc(O[C@H]3O[C@H](CO)[C@@H](O)[C@H](O)[C@@H]3O)c(O)c(O)c12	inactive

Q. // param item: CCCC[C@@H]1C[C@H]1C(NC(=O)c1ccco1)c1ccccc1 (stereo partly drawn) ; yields the recorded call
A. active

Q. In this assay, the call recorded for "CC(C)[C@@H](CC(=O)N[C@@H]1CCNC[C@H]1C(=O)N[C@H](CC(=O)N[C@@H](CCC(=O)O)CC(=O)O)Cc1ccccc1)NC(=O)C[C@H](CO)NC(=O)[C@@H]1CCCC[C@H]1N" was what?
A. inactive

Q. GET /call?item= "C[C@@H](C(=O)NCCc1c[nH]c2ccccc12)[C@@H]1C[C@@]1(C)[C@@H](NC(=O)OCc1ccccc1)c1ccccc1" returns the recorded outcome of this test.
A. active

Q. What did this assay record as the result for "CC(C)[C@@H](CC(=O)N[C@@H]1CCCC[C@H]1C(=O)N[C@H](CC(=O)N[C@@H](CCC(=O)O)CC(=O)O)Cc1ccccc1)NC(=O)C[C@H](Cc1ccccc1)NC(=O)[C@@H]1CCCC[C@H]1N" ?
A. inactive

Q. Entry "COc1ccc(OC)c([C@H]2Nc3ccccc3NC3=C2C(=O)CC(C)(C)C3)c1Br" : call = ?
A. active

Q. Assay result, entry "CC(C)C[C@@H](CC(=O)N[C@@H](CCC(=O)O)CC(=O)O)NC(=O)[C@@H]1CCCC[C@H]1NC(=O)C[C@H](CCCN)NC(=O)C[C@H](CO)NC(=O)[C@@H]1CCCC[C@H]1N" — outcome?
A. inactive

Q. Would you mind telling me which call this test gave "NCCC[C@@H](CC(=O)N[C@@H]1CCCC[C@H]1C(=O)N[C@H](CC(=O)N[C@@H](CCC(=O)O)CC(=O)O)Cc1ccccc1)NC(=O)C[C@H](Cc1ccccc1)NC(=O)[C@@H]1CNCC[C@H]1N" ?
A. inactive

Q. Fill in: this test's call for "COC(=O)[C@H](C)[C@@H]1C[C@@]1(C)[C@@H](NC(=O)OCc1ccccc1)c1ccccc1" is ___
A. active

Q. Query: recorded result category for CCC[C@@H]1C[C@@]1(CCC)C(NC(=O)c1ccco1)c1ccc(Cl)cc1 (stereo partly drawn) in this test
A. active

Q. Query: recorded result category for "CC(C)C[C@@H](CC(=O)N[C@@H](CCCN)CC(=O)N[C@@H]1CCNC[C@H]1C(=O)N[C@H](CC(=O)N[C@@H](CCC(=O)O)CC(=O)O)CC(C)C)NC(=O)[C@@H]1CNCC[C@H]1N" in this test
A. inactive

Q. Answer briefly: the call reported for CCC/C=C(\CCC)C(NP(=O)(c1ccccc1)c1ccccc1)c1ccc(-c2ccccc2)cc1 (stereo not drawn) in this assay.
A. active

====

# assay_text: qHTS for Inhibitors of Plasmodium falciparum (DD2) proliferation (AID 504314);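 note: parasite DNA measured by SYBR Green fluorescence after red cell lysis; plate controls were DMSO vehicle for no effect and artemisinin wells for full effect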
# experimental_context: P. falciparum Dd2 in erythrocytes, SYBR Green growth, 72 h; series mostly up to 1.12 µM
Results filed as inconclusive are left out. Activity calls are given as the source filed them. Calls follow the shape of the dose curve; as a rule, active = well fitted inhibition curve with a large enough effect; inconclusive = small, poorly fitted or top-dose-only effect; inactive = flat fitted curve, though single readings scatter.
measured_attribute: outcome

Solved cases below.
molecule	value_reported
COC/C=C/C1=CC2=CC(=O)C(C)(OC(=O)c3cnc4ccccc4n3)C(=O)C2=CN1C1CCCCC1 (stereo not drawn)	inactive
C[C@H]1Cc2c(-c3ccccc3)nc3c(c2CO1)CN(C(=O)C1CC1)CC3	inactive
CCOC(=O)NN=C1C[C@@H](O)[C@@H](O)[C@@H]2[C@H]3C(=O)N(C4CCCCC4)C(=O)[C@@H]3CC[C@@H]12	inactive
CC(=O)Nc1ccc(S(=O)(=O)N2CCc3nc(COc4ccccc4)c4c(c3C2)CO[C@@H](C)C4)cc1	inactive
Fc1ccccc1-c1nc(-c2ccccc2)oc1NC1CCCCC1	inactive

Q. What does the record list as outcome for "CC(CCN1CCCc2nc(C)c(C)cc21)=NO[C@H](C)c1cn([C@@H]2COC[C@@H]2O)nn1" ?
A. inactive

Q. What outcome value was documented for this molecule, "COC(=O)N[C@H](C(C(=O)OC)=C(C)NCc1ccccc1)c1cccc(F)c1" ?
A. inactive

Q. Field request: outcome | item: "C=CCN1c2ccccc2[C@]23C[C@@H](C(=O)OC)N(C(=O)CC(C)C)C2=NC(C(=O)OC)=C(C(=O)OC)[C@H]13"
A. inactive

====

# assay_text: NFAT Signaling Pathway (AID 444);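 note: carbachol stimulus at about its EC50 of 1 µM final; % is set by controls: 0 for no effect and ±100 for the full control effect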
# experimental_context: Jurkat NFAT-bla M1, carbachol, beta-lactamase ratio, 5 h; at 17.2 µM (top of the series) unless noted
Records with an inconclusive call do not appear.
Parameter: activity change, negative = inhibition. Scope: all listed entries.
Report the figure in % without appending any unit label.

Please review the entries below; each comes with its answer.
compound	measurement_units	activity change, negative = inhibition
COc1ccccc1-n1c(=O)c2c3c(sc2n2c(SC(C)C)nnc12)CCC3	%	-27.1
Cc1ccc(OCC(=O)N(C)CCc2ccccn2)cc1	%	5.19
CC(C)=CCC(C)(C)CNC(=O)NC1CCCCC1	%	19
CCN(CC)CCNc1nc2c(c(=O)[nH]c(=O)n2C)n1CCOc1ccccc1	%	-7.16
CCOC(=O)c1ccc(CSc2ncn[nH]2)o1	%	-2.95

Q. Sample CCOP(=O)(c1ccccc1)c1nc(-c2ccc(F)cc2)oc1N1CCCCC1 (stereo unspecified) — what was its activity change, negative = inhibition?
A. 3.09

====

# study_system: Cytochrome P450 1A2 (Homo sapiens) (UniProt P05177)
# Sequence (P05177 whole entry, looked up): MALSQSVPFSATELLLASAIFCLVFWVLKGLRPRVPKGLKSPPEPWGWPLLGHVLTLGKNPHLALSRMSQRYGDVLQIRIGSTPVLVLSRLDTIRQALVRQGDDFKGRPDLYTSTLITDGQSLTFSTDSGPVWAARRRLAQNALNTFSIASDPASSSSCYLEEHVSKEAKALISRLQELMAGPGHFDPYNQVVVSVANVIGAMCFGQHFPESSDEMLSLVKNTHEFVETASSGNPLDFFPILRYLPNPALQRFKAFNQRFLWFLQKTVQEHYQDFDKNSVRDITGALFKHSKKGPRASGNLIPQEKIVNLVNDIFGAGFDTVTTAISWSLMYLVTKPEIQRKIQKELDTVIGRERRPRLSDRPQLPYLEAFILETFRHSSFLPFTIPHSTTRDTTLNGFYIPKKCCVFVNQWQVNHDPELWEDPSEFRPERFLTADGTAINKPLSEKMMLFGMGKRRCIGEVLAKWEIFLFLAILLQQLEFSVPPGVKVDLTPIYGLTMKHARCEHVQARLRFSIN
# assay_text: p450-cyp1a2 (AID 410)
# experimental_context: recombinant CYP1A2, luciferin-ME demethylation, luminescence; series mostly up to 57 µM
Inconclusive results are not listed. Calls of active or inactive are those of the source. The call rests on the fitted dose curve.
One label from this list, please: TRUE (active), FALSE (inactive)

Study these solved cases before continuing.
molecule	class
CC(=O)N[C@@H](c1ccccc1)[C@]1(C)C[C@H]1[C@@H](C)C(=O)Nc1ccc2ccccc2c1	TRUE
CCCCCC1=C2CNC(C)(C(=O)OC)C=C2C(C)C1=O (stereo not given)	TRUE

Q. Look up the recorded call for "COC(=O)[C@@]1(Cc2ccc(F)cc2)[C@H]2c3cc(C(=O)N(C)C)n(Cc4ccc(C)o4)c3C[C@H]2CN1C(=O)c1ccccc1" in this test.
A. FALSE

Q. Record request — test call for "COC(=O)[C@@]1(Cc2ccccc2)[C@H]2c3cc(C(=O)N4CCCC4)n(C)c3C[C@H]2CN1C(=O)c1ccccc1"
A. TRUE

Q. What was the test verdict on "CCCCc1c2ccccc2nc2[nH]c3ccccc3c12" ?
A. TRUE

====

# assay_text: qHTS for Inhibitors of Plasmodium falciparum (7G8) proliferation (AID 504316);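 note: 0% = DMSO vehicle and -100% = 0.29 µM artemisinin full kill; nearly all actives have a fitted effect of over 65% in size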
# experimental_context: P. falciparum 7G8 in erythrocytes, SYBR Green DNA, 72 h; series mostly up to 6.7 µM
Results filed as inconclusive are left out. Calls of active or inactive are those of the source. Calls come from the whole dose curve; as a rule, active = well fitted inhibition curve with a large enough effect; inconclusive = small, poorly fitted or top-dose-only effect; inactive = flat fitted curve, though single readings scatter.
Select the matching outcome among class 1 for active, class 0 for inactive

Worked examples follow.
compound	class
CC1(OC(=O)C2CCCC2)C(=O)C=C2C=C(c3ccsc3)N(CCCCO)C=C2C1=O (stereo not given)	class 0
COC(=O)C1=C(C(=O)OC)[C@@H]2N(C)c3ccccc3[C@@]23C[C@@H](CO)N=C3N1	class 0
CCN1C(=O)N[C@@H](c2ccco2)C(C(C)=O)=C1C	class 0
COC(=O)C1=C(C(=O)OC)[C@@H]2Nc3ccccc3[C@@]23C[C@@H](C(=O)OC)N(C(=O)NC2CCCC2)C3=N1	class 0
COC/C=C/C1=CC2=CC(=O)C(C)(OC(=O)c3cnc4ccccc4n3)C(=O)C2=CN1c1cccc(C#N)c1 (stereo not given)	class 0

Q. Hi, do you know how "COCCN1C(=O)N[C@@H](c2ccco2)C(C(=O)OC)=C1C" came out in this test?
A. class 0

Q. Could you kindly confirm the outcome this assay logged for "COC(=O)C1=C(C(=O)OC)[C@@H]2N(C)c3ccccc3[C@@]23C[C@@H](C(=O)OC)N(C(=O)CC(C)C)C3=N1" ?
A. class 0

Q. Hello, I am checking results. What call was entered for "CCOC(=O)C=CCCCC=CC(=O)c1ccccc1" ?
A. class 0

Q. Just curious, what result did C=C(C(C)=O)C(O)C=Cc1ccco1 (stereo not given) get here?
A. class 0

Q. Please let me know the test result on file for "CC(C)CON=C1C[C@@H](O)[C@@H](O)[C@@H]2[C@H]3C(=O)N(c4cccc(Oc5ccccc5)c4)C(=O)[C@@H]3CC[C@H]12" .
A. class 0

Q. Hi, sorry to bother you, what did the test record for CCN(CC)CCCN1C=C2C(=O)C(C)(OC(=O)C3CCCC3)C(=O)C(c3ccccc3)=C2C=C1CCCC(=O)OC (stereo not given) ?
A. class 0

Q. What did this assay record as the result for "CCN1C(=O)N[C@@H](CCc2ccccc2)[C@H](C(=O)OC)[C@H]1C" ?
A. class 0

Q. How did this test come out for "COC(=O)C1=C(C)N(Cc2ccccc2)C(=O)N[C@H]1c1cccc(F)c1" ?
A. class 0
